Test system: A549
method summary: NCI tumour cell line growth inhibition, 48 h
The source made the active and inactive calls. No stated cut-off is given here; in the data, active = GI50 up to about 1.1 µM and inactive = higher.
GI50 listing for selected molecules.

>  <entry smiles>
C[C@]12CC[C@H](OC(=O)Cc3ccc(N(CCCl)CCCl)cc3)CC1=CC[C@@H]1[C@@H]2CC[C@]2(C)C(=O)CC[C@@H]12

>  <experimental readout>
GI50

>  <result>
> 100 µM (inactive)

$$$$
>  <entry smiles>
COc1cc(OC)c(-c2cc(=O)c3c(OC)c(OC)c(OC)c(OC)c3o2)cc1OC

>  <experimental readout>
GI50

>  <result>
> 100 µM (inactive)

$$$$

Consider the additional molecule presented here.
Task: Query (molecule): "CN1CCN(c2nc3c(c(=O)n(C)c(=O)n3C)n2C)CC1" ; field requested: GI50
Result: > 100 µM (inactive)

---

System: SW-620
method summary: NCI tumour cell line growth inhibition, 48 h
Activity calls are given as the source filed them. No stated cut-off is given here; in the data, active = GI50 up to about 1.1 µM and inactive = higher.
Assign a class; possible classes are yes (1) for active, no (0) for inactive

Task: Identify the outcome logged in this assay for the molecule shown: "N#Cc1c(N)c(-c2ccc(Cl)cc2)c(F)c2ccccc12"
Result: no (0)

Task: Identify the outcome logged in this assay for the molecule shown: "c1cc2c(ncc3cscc32)s1"
Result: no (0)

Task: Identify the outcome logged in this assay for the molecule shown: "O=C(NCc1ccccc1Cl)c1c(O)c2ccccc2[nH]c1=O"
Result: no (0)

Task: Identify the outcome logged in this assay for the molecule shown: "CC(C)(O)/C=C/C(=O)[C@](C)(O)[C@H]1[C@H](O)C[C@@]2(C)[C@@H]3CC=C4[C@@H](C[C@H](O)C(=O)C4(C)C)[C@]3(C)C(=O)C[C@]12C"
Result: yes (1)

Task: Identify the outcome logged in this assay for the molecule shown: CCOC(=O)C1C2CCC1CC(=NNc1ccc([N+](=O)[O-])cc1[N+](=O)[O-])C2 (configuration not stated)
Result: no (0)

Task: Identify the outcome logged in this assay for the molecule shown: "CCOC(=O)CCc1c(C(=O)OCC)[nH]c(/C=C2/NC(=O)C(C)=C2CC)c1C"
Result: no (0)

Task: Identify the outcome logged in this assay for the molecule shown: CC(=O)N(C)SCC(NC(=O)C(Cc1ccccc1)NC(=O)OCc1ccccc1)C(=O)NC(Cc1ccccc1)C(=O)NC(Cc1cn(C=O)c2ccccc12)C(=O)NC(CCCCNC(=O)OCc1ccccc1)C(=O)NC(C(=O)NC(CSN(C)C(C)=O)C(=O)NO)C(C)OCc1ccccc1 (configuration not stated)
Result: no (0)

---

Tested on: RXF 393
method summary: NCI tumour cell line growth inhibition, 48 h
Activity calls are given as the source filed them. Rule as the data show it: active = GI50 up to about 1.1 µM and inactive = higher.
GI50 listing for selected compounds.

Examples with answers:
>  <compound>
c1csc(-c2cc(-c3cccs3)c(-c3cccs3)s2)c1

>  <GI50>
61.5 µM (inactive)

$$$$
>  <compound>
C[C@H]1COC(c2ccccn2)=N1

>  <GI50>
> 100 µM (inactive)

$$$$
>  <compound>
COc1cc(OC)c(-c2cc(=O)c3c(OC)c(OC)c(OC)c(OC)c3o2)cc1OC

>  <GI50>
12.7 µM (inactive)

$$$$

Consider the additional compound presented here.
Task: # get_value(readout= GI50, system= RXF 393) for O=C1NC(=O)C(CC2CCCCCCCCCCC2=O)C(=O)N1 (centres undefined)
Result: > 100 µM (inactive)

---

System: HT-29
method summary: NCI tumour cell line growth inhibition, 48 h
The source made the active and inactive calls. Cut-off read from the data, not from the text of the source: active = GI50 up to about 1.1 µM and inactive = higher.
experimental readout: GI50

>  <molecule>
C=C1C(=O)OC2C1CCC(=C)C1CC(O)C(=C)C12 (stereo not given)

>  <tested system>
HT-29

>  <GI50>
5.57 µM (inactive)

$$$$
>  <molecule>
CCOC(=O)C(Cl)(NC(=O)c1c(F)c(F)c(F)c(F)c1F)C(F)(F)F (stereo not given)

>  <tested system>
HT-29

>  <GI50>
> 100 µM (inactive)

$$$$
>  <molecule>
O=C(O)C(Cc1cccs1)C(=O)O

>  <tested system>
HT-29

>  <GI50>
> 100 µM (inactive)

$$$$
>  <molecule>
COc1ccc2cc(CN3CCC(C4CCN(Cc5ccc6cc(OC)ccc6c5)CC4)CC3)ccc2c1

>  <tested system>
HT-29

>  <GI50>
2.2 µM (inactive)

$$$$

Consider the additional molecule presented here.
Task: Query (molecule): COc1ccc(CCN2C(=O)C(=O)C(C(=O)c3ccccc3)C2c2ccccc2)cc1OC (stereo not given) ; field requested: GI50
Result: > 100 µM (inactive)

---

GI50 listing for selected compounds.
Tested on: LOX IMVI
method summary: NCI tumour cell line growth inhibition, 48 h
The source made the active and inactive calls. Rule as the data show it: active = GI50 up to about 1.1 µM and inactive = higher.

Task: Query (compound): COc1cc(C=C2C(C)=NN(c3cccc(Cl)c3)C23C(Cl)C(=O)N3c2nc3ccccc3s2)ccc1O (centres undefined) ; field requested: GI50
Result: 18.1 µM (inactive)

---

GI50 listing for selected molecules.
Test system: SK-OV-3
method summary: NCI tumour cell line growth inhibition, 48 h
Activity calls are given as the source filed them. Cut-off read from the data, not from the text of the source: active = GI50 up to about 1.1 µM and inactive = higher. Peptide text beside a SMILES is read from it. * marks the point of attachment. Boc = CC(C)(C)OC(=O)*; OBn = c1ccc(CO*)cc1

Examples with answers:
>  <molecule>
CCOC(=O)CCC(NC(=O)c1ccc(NCc2ccc3nc(-c4ccccc4)c(Cl)nc3c2)cc1)C(=O)OCC (stereo unspecified)

>  <result>
> 100 µM (inactive)

$$$$
>  <molecule>
O=C(O)c1cccc(C(=O)O)c1[S+]([O-])Cc1ccccc1 (stereo unspecified)

>  <result>
> 100 µM (inactive)

$$$$
>  <molecule>
C=C(C)COc1ccc2c(c1)CCC1C2CCC2(C)C(=O)/C(=N/O)CC12 (stereo unspecified)

>  <result>
8.55 µM (inactive)

$$$$

Task: Query (molecule): COc1cc(C=C2C(C)=NN(c3cccc(Cl)c3)C23C(Cl)C(=O)N3c2nc3ccccc3s2)ccc1O (stereo unspecified) ; field requested: GI50
Result: 26.3 µM (inactive)

Task: Query (molecule): "CCn1c(SCC(=O)N/N=C/c2ccccc2)nc2ccccc2c1=O" ; field requested: GI50
Result: 17.8 µM (inactive)

Task: Query (molecule): "CC1=N/C(=C/c2ccc3c(c2)OCO3)C(=O)O1" ; field requested: GI50
Result: > 100 µM (inactive)

Task: Query (molecule): "C[C@]1(CO)[C@H]2CC[C@@]34C=C[C@@](CO)(CC[C@H]3[C@]2(C)CC[C@H]1O)C4" ; field requested: GI50
Result: 38.6 µM (inactive)

Task: Query (molecule): "N#Cc1ccc(/C=N/C23CC4CC(CC(C4)C2)C3)cc1" ; field requested: GI50
Result: > 100 µM (inactive)

Task: Query (molecule): "COc1cc(C[C@H]2C(=O)OC[C@@H]2Cc2ccc(OC)c(OC)c2)cc(OC)c1" ; field requested: GI50
Result: > 100 µM (inactive)

Task: Query (molecule): "CC/C=C/C[C@H](O[Si](C)(C)C(C)(C)C)[C@H]1C[C@H]2O[C@H]([C@@H](O)C#C[Si](C)(C)C)C[C@H]2O1" ; field requested: GI50
Result: 15.5 µM (inactive)

Task: Query (molecule): "CC(=O)Nc1ccc(S(=O)(=O)N=S(C)C)cc1" ; field requested: GI50
Result: > 100 µM (inactive)

Task: Query (molecule): CC(NC(=O)C(NC(=O)OC(C)(C)C)C(C)C)C(=O)N1CCCC1C(=O)NCC(=O)NC(C(=O)NCC(=O)OCc1ccccc1)C(C)C (stereo unspecified) (Boc-VAPGVG-OBn; configuration not given here) ; field requested: GI50
Result: > 100 µM (inactive)

Task: Query (molecule): "C=C1N(C)c2ccc(S(=O)(=O)c3ccc4c(c3)C(C)(C)C(=C)N4C)cc2C1(C)C" ; field requested: GI50
Result: > 100 µM (inactive)

Task: Query (molecule): "CCN1CCCc2cc3c(C(F)(F)F)cc(=O)oc3cc21" ; field requested: GI50
Result: > 100 µM (inactive)

Task: Query (molecule): CCOC(=O)C(SCCO)C(C(=O)OCC)n1ccc(=O)[nH]c1=O (stereo unspecified) ; field requested: GI50
Result: > 100 µM (inactive)

Task: Query (molecule): CCC(Sc1cc(Cl)c(C)cc1S(=O)(=O)Nc1nc(N)nc(N(C)C)n1)C(=O)O (stereo unspecified) ; field requested: GI50
Result: > 10 µM (inactive)

---

Tested on: CAKI-1
method summary: NCI tumour cell line growth inhibition, 48 h
The source made the active and inactive calls. No stated cut-off is given here; in the data, active = GI50 up to about 1.1 µM and inactive = higher.
Assign a class; possible classes are active, inactive

# example entries with known answers
>  <molecule>
N#Cc1c(N)c(-c2ccc(Cl)cc2)c(F)c2ccccc12

>  <tested system>
CAKI-1

>  <classification>
inactive

$$$$
>  <molecule>
CCC1C(=O)C[C@H]2[C@@H]3C(O)CC4=CC(=O)CC[C@]4(C)[C@H]3CC[C@]12C (stereo partly drawn)

>  <tested system>
CAKI-1

>  <classification>
inactive

$$$$

Task: Identify the outcome logged in this assay for the molecule shown: "CN=C(n1ccnc1)n1ccnc1"
Result: inactive

Task: Identify the outcome logged in this assay for the molecule shown: COc1cccc(C2c3cc4c(cc3OC(NNS(=O)(=O)c3ccc(C)cc3)C2C)OCO4)c1OC (stereo not drawn)
Result: inactive
